subject-of-test: human PAH with the R408W mutation (Homo sapiens, UniProt P00439, R408W)
Construct: expressed in transfected cells
Sequence (P00439 1-452 R408W): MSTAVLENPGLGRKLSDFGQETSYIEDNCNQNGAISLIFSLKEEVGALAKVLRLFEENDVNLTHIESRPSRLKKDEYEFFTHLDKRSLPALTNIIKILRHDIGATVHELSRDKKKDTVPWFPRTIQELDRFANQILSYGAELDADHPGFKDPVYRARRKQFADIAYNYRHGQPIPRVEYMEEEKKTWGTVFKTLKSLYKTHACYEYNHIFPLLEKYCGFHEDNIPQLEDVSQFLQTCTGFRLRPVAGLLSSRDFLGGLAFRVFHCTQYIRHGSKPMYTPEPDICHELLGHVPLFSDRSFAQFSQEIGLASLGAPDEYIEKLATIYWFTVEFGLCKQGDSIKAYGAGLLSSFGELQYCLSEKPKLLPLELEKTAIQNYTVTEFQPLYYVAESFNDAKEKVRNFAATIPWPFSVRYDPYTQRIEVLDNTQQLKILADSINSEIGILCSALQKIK
experiment-description: Cell Based Phenylalanine Flux Assay
recorded-conditions: A375 cells expressing human R408W PAH; 24 hrs compound incubation; 13C-Tyrosine by LC-MS; average where tested multiple times; read-out: AC50
property-label: AC50

Worked cases, AC50 given:
O=C(c1cnn2cc(Cl)ccc12)N1CCc2[nH]cnc2[C@H]1c1nc2ccccc2s1 : < 500 nM
O=C(c1ccnn1C1CC1)N1CCc2[nH]cnc2[C@H]1c1nc2c(F)cccc2s1 : < 500 nM
Cc1nn(C)c(C)c1-c1ncc(C(=O)N2CCc3[nH]cnc3[C@H]2c2nc3ccccc3s2)s1 : < 500 nM
O=C(c1cnn2cc(-c3ccccc3)ccc12)N1CCc2[nH]cnc2[C@@H]1c1nc2ccccc2s1 : > 5000 nM
O=C(c1oc(-c2ccccn2)nc1C1CC1)N1CCCc2[nH]cnc2[C@@H]1c1nc2ccccc2s1 : 1000 to 5000 nM
O=C(c1ocnc1C(F)F)N1CCc2[nH]cnc2[C@@H]1c1nc2c(F)cccc2s1 : 500 to 1000 nM
O=C(c1ocnc1C(F)(F)F)N1CCc2[nH]cnc2[C@@H]1c1nc2c(F)cccc2s1 : < 500 nM
O=C(CC1CC(F)(F)C1)N1CCc2[nH]cnc2[C@H]1c1nc2ccccc2s1 : < 500 nM

Incoming: Annotate the compound O=C(c1cnc(N2CCCC2)s1)N1CCc2[nH]cnc2[C@@H]1c1nc2ccccc2s1 with its measured AC50.
Outgoing: 1000 to 5000 nM

Incoming: Annotate the compound Cc1nc(CN(C)C)oc1C(=O)N1CCc2[nH]cnc2[C@@H]1c1nc2ccccc2s1 with its measured AC50.
Outgoing: > 5000 nM

Incoming: Annotate the compound C=Cc1ccc2c(C(=O)N3CCc4[nH]cnc4[C@@H]3c3nc4ccccc4s3)cnn2c1 with its measured AC50.
Outgoing: 1000 to 5000 nM

Incoming: Annotate the compound CC(C)(C)c1ncc(C(=O)N2CCc3[nH]cnc3[C@@H]2c2nc3c(F)cccc3s2)o1 with its measured AC50.
Outgoing: 500 to 1000 nM

Incoming: Annotate the compound O=C(N1CCc2[nH]cnc2[C@@H]1c1nc2ccccc2s1)C(F)(F)C1(O)CCC1 with its measured AC50.
Outgoing: 1000 to 5000 nM

Incoming: Annotate the compound O=C(c1oc(-c2ccccn2)nc1Br)N1CCc2[nH]cnc2[C@@H]1c1nc2ccccc2s1 with its measured AC50.
Outgoing: 1000 to 5000 nM

Incoming: Annotate the compound Cc1nc(C(C)(C)C)oc1C(=O)N1CCc2[nH]cnc2[C@H]1c1nc2c(F)cccc2s1 with its measured AC50.
Outgoing: 500 to 1000 nM

Incoming: Annotate the compound Cn1cc(C(=O)N2CCc3[nH]cnc3[C@@H]2c2nc3ccccc3s2)c(Cl)n1 with its measured AC50.
Outgoing: > 5000 nM
